Provenance of the data: patent US20250223331A1

Kindly supply the reported EC50 values for the records listed here.
Target: GLP-1R (Homo sapiens)
Assay: cAMP assay, in vitro activity of polypeptides, HEK293-GLP-1R cells
Format: cell-based
Set-up: expressed in transfected cells; host or cells: HEK293 (pcDNA3.1, G418-selected single clone)
Conditions: HEK293-GLP-1R, cAMP; read-out: Ec50(nM) of the peptide GLP-1R
Where no end group is shown, it is not given here.
Write the value in nM as a bare number.

Req: Indicate the recorded EC50 value for this sequence: YSEGTFTSDYSILLDKKAQQDFIEWLIAGGPSSGAPPPS [CG137]
Resp: 0.25

Req: Could you please provide reported EC50 for YSEGTFTSDYSILLDKIAQREFIEWLIAGGPSSGAPPPS [CG122] ? Thanks!
Resp: 0.191

Req: Please look at this sequence and report its EC50: YSEGTFTSDYSILLDKIAQREFVQWLLAGGPSSGAPPPS [CG123]
Resp: 0.879

Req: Return EC50 (reported value) for this sequence: YSEGTFTSDYSILLDKIAQREFIEWLLAGGPSSGAPPPS [CG115]
Resp: 0.291

Req: Give the reported value of EC50 for this record: YSEGTFTSDYSILLDKIAQQEFIEWLIAGGPSSGAPPPS [CG135]
Resp: 0.558

Req: Return EC50 for the following sequence: YSEGTFTSDYSILLDKIAQQEFIEWLLAGGPSSGAPPPS [CG134]
Resp: 2.15

Req: Give the reported EC50 for this sequence. YSEGTFTSDYSILLDKIAQREFVQWLIAGGPSSGAPPPS [CG124]
Resp: 0.232

Req: Consider the sequence YSEGTFTSDYSILLDKKAQRDFIEWLLAGGPSSGAPPPS [CG127] and give its recorded EC50.
Resp: 0.364

Req: Please report EC50 for the following sequence: YSEGTFTSDYSILLDKIAQQDFVEWLLAGGPSSGAPPPS [CG133]
Resp: 8.18

Req: Please report the measured EC50 for YGEGTFTSDYSILLDKIAQREFIEWLLAGGPSSGAPPPS [CG126]
Resp: 0.918

---

Exercise: state measured EC50 for each of the sequences provided.
Target: GLP-1R (Homo sapiens, UniProt P43220)
Sequence (P43220 24-463, species assumed): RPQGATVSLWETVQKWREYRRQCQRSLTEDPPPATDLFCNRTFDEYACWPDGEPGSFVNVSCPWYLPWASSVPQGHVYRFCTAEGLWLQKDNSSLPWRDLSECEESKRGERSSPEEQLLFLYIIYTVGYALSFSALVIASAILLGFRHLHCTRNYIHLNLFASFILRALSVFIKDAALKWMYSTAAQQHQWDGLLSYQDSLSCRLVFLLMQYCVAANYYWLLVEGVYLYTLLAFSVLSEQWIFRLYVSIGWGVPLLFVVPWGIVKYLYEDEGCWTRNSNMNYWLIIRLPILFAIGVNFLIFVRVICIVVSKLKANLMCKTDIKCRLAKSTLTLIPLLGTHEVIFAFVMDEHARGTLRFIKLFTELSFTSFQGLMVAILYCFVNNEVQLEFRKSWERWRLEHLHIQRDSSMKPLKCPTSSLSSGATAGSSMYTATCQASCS
Assay: cAMP assay, in vitro activity of polypeptides, HEK293-GLP-1R cells
Format: cell-based
Parameters: expressed in transfected cells; host or cells: HEK293 (pcDNA3.1, G418-selected single clone)
Conditions: HEK293-GLP-1R, cAMP; read-out: Ec50(nM) of the peptide GLP-1R
Where no end group is shown, it is not given here.
// units = nM; emit number, no label

Req: Supply measured EC50 of YSEGTFTSDYSILLDKIAQRAFIEWLLAGGPSSGAPPPS [CG121] in your reply.
Resp: 0.322

Req: Quote EC50 reported for YSEGTFTSDYSILLDKIAQRAFVQWLIAGGPSSGAPPPS [CG125] please.
Resp: 0.205

Req: Hello, please tell me recorded EC50 for this one: YSEGTFTSDYSILLDKKAQQDFIEWLLAGGPSSGAPPPS [CG136]
Resp: 1.11

---

Target: GIPR (Homo sapiens)
Construct: expressed in transfected cells; host or cells: HEK293 (pcDNA3.1, G418-selected single clone)
Sequence (P48546 22-466, species assumed): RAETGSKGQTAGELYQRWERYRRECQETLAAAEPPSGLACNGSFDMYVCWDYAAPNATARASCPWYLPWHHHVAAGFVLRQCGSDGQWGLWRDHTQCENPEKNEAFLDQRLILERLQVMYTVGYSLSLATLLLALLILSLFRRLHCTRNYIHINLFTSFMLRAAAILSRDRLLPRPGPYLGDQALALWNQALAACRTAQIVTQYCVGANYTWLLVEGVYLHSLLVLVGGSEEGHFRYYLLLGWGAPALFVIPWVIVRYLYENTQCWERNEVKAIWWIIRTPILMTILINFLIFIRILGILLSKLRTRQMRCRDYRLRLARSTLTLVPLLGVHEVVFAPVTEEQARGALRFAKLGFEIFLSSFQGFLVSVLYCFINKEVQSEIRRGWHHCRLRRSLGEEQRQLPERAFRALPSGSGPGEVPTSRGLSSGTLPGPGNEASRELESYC
Assay: cAMP assay, in vitro activity of polypeptides, HEK293-GIPR cells
Type: cell-based
Details: read-out: Ec50(nM) of the peptide GIPR
Where no end group is shown, it is not given here.
measure.name: EC50 (nM)
Report the value in nM with no unit label.

Req: Give me measured EC50, please, for this sequence: YSEGTFTSDYSILLDKIAQRAFIEWLLAGGPSSGAPPPS [CG121]
Resp: 0.018

Req: Quote EC50 reported for YSEGTFTSDYSILLDKIAQREFIEWLIAGGPSSGAPPPS [CG122] please.
Resp: 0.016

Req: Entry YGEGTFTSDYSILLDKIAQREFIEWLLAGGPSSGAPPPS [CG126] needs its EC50 filled in; supply it.
Resp: 0.027
